test: NCI Yeast Anticancer Drug Screen. Data for the wt2 strain (AID 169);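 note: 0% = growth of vehicle-treated yeast cultures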; conditions: S. cerevisiae wt2 strain growth inhibition; at 100.0 µM; hits give high values
About 79,000 compounds went through this panel and 15% of them were active in at least one assay; those are over-represented in the sample as a whole.
Some molecules, each annotated with its measured growth inhibition.
Answer format: numeric, % implied, no suffix.

// below: answered molecules
MOLECULE: CCOC(=O)C(C(=O)OCC)=P(c1ccccc1)(c1ccccc1)c1ccccc1
MEASURE UNIT: %
ASSAY RESULT: 95
--
MOLECULE: CC1=C(SCc2ccccc2)C(=O)c2ccccc2C1=O
MEASURE UNIT: %
ASSAY RESULT: 92
--
MOLECULE: CCCCNC1CCC2(SCCS2)c2[nH]c3ccccc3c21 (configuration not stated)
MEASURE UNIT: %
ASSAY RESULT: 8

Field request: growth inhibition | item: Nc1ncnc2c1ncn2C1OC(CO)CC1O (configuration not stated) 91

Field request: growth inhibition | item: `CN(CCN(C)Cc1ccccc1)Cc1ccccc1` 14

Field request: growth inhibition | item: `Cc1ccc(S/C(=C\C(=O)O)c2ccccc2)cc1` 11

Field request: growth inhibition | item: C=C1CC(CCCl)(c2ccccc2)OC1=O (configuration not stated) 95

====

Some compounds, each annotated with its measured growth inhibition.
experiment: NCI Yeast Anticancer Drug Screen. Data for the wt1 strain (AID 149);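 note: 0% = growth of vehicle-treated wt1 cultures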; settings: S. cerevisiae wt1 strain (SPY 50644) growth inhibition; at 11.0 µM; hits give high values
This is part of a sample that, as a whole, favours compounds with a hit. Of some 79,000 tested, about 15% had one in any assay.
Answer format: numeric, % implied, no suffix.

Field request: growth inhibition | item: `Cc1ccc(Sc2ccccc2N)cc1` -7

Field request: growth inhibition | item: CC[N+]1(C)CCC(O)(c2ccc(OC)cc2)C(C(=O)c2ccc(OC)cc2)C1 (stereo unspecified) -72

Field request: growth inhibition | item: COc1cccc2c1C(=O)c1c(O)c3c(c(O)c1C2=O)C[C@@](O)(C(C)=O)C[C@@H]3OC1CC(OC(C)=O)C(OC(C)=O)C(C)O1 (stereo partly specified) -46

Field request: growth inhibition | item: `O=C1NC(=O)c2ccc([N+](=O)[O-])c3cccc1c23` 25

Field request: growth inhibition | item: `COc1ccc2c(c1)n([O-])c1ccccc1[n+]2=O` 9

====

Assay: NCI Yeast Anticancer Drug Screen. Data for the bub3 strain (AID 167)
Details: S. cerevisiae bub3 mutant strain, at 11.0 µM
Method: Growth inhibition of yeast strains with defined genetic alterations is measured as a screen for potential anti-cancer activity. Selected strains with alterations in DNA damage repair or cell cycle control were exposed to compounds and growth inhibition was measured relative to vehicle treated controls. The strain used in this assay is bub3
This is part of a sample that, as a whole, favours compounds with a hit. Of some 79,000 tested, about 15% had one in any assay. Active and inactive are the calls of the source. Cut-off read from the data, not from the text of the source: active = growth inhibition above about 70%; inactive = the rest.
Your reply should match one of these outcome classes. TRUE for active, FALSE for inactive

Per the records of this test, what outcome belongs to `CN(C)CCNc1ccc2ncnc3c2c1C(=O)c1ccccc1-3` ? FALSE

Per the records of this test, what outcome belongs to `c1ccc(-c2cnc3ccccc3c2)cc1` ? FALSE

====

test: NCI Yeast Anticancer Drug Screen. Data for the mec2-1 strain (AID 157); conditions: S. cerevisiae mec2-1 strain, at 33.0 µM
This is part of a sample that, as a whole, favours compounds with a hit. Of some 79,000 tested, about 15% had one in any assay. Activity calls are given as the source filed them. Rule as the data show it: active = growth inhibition above about 70%; inactive = the rest.
Your reply should match one of these outcome classes. active, inactive

Please review the following examples before continuing.
MOLECULE: O=[N+]([O-])c1ccc(N/N=C/Cc2ccccc2)c([N+](=O)[O-])c1
CLASS: inactive
--
MOLECULE: CCCCN(CCCC)CCC(O)c1cc2c(Cl)cc(Cl)cc2c2cc(C(F)(F)F)ccc12 (stereo not given)
CLASS: active
--
MOLECULE: CS(=O)(=O)OCCN(CCOS(C)(=O)=O)c1ccc(C=Nc2ccc(-c3csc(COc4ccccc4)n3)cc2)cc1
CLASS: active

Per the records of this test, what outcome belongs to CC(=O)OCC1OC2OC(=O)NC2C(OC(C)=O)C1OC(C)=O (stereo not given) ? inactive

Per the records of this test, what outcome belongs to `Oc1ccc(SCc2ccc(NCc3ccccc3)cc2)cc1` ? inactive

Per the records of this test, what outcome belongs to `CC1=C(C(=O)NCc2ccccc2)C(c2ccccc2)C(C(=O)NCc2ccccc2)=C(C)N1` ? inactive

Per the records of this test, what outcome belongs to `O=C(NO)Nc1cc(Cl)cc(Cl)c1` ? active

Per the records of this test, what outcome belongs to `O=C1C(Br)=C(c2ccccc2)O/C1=C/C(=O)c1ccc(Br)cc1` ? inactive

Per the records of this test, what outcome belongs to N=C1N=Nc2nc(C3(c4nc5n(c4O)C(=N)N=N5)Cc4ccccc4C3=O)c(O)n21 (stereo not given) ? inactive

Per the records of this test, what outcome belongs to OC(/C=C/c1ccccc1)(Cc1cc(-c2ccccc2)n[nH]1)c1ccccc1 (stereo not given) ? inactive

====

experiment: NCI Yeast Anticancer Drug Screen. Data for the wt1 strain (AID 149);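 note: 0% = growth of vehicle-treated wt1 cultures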; conditions: S. cerevisiae wt1 strain (SPY 50644) growth inhibition; at 11.0 µM
This is part of a sample that, as a whole, favours compounds with a hit. Of some 79,000 tested, about 15% had one in any assay. The source made the active and inactive calls. Cut-off read from the data, not from the text of the source: active = growth inhibition above about 70%; inactive = the rest.
Your reply should match one of these outcome classes. t (active), f (inactive)

Please review the following examples before continuing.
MOLECULE: CC(NCCN(C)C)C1CCC2C3CCc4cc(O)ccc4C3CCC12C (stereo unspecified)
CLASS: f

MOLECULE: CC(=O)Nc1ccc2c(c1)Cc1cc(N=C3C=CC(=O)O3)ccc1-2
CLASS: f

MOLECULE: COC(=O)CC1CCc2c(ccc3ccccc23)C1(C)C(=O)OC (stereo unspecified)
CLASS: f

Per the records of this test, what outcome belongs to O=C(O)CCCC1CCCc2c1ccc1ccccc21 (stereo unspecified) ? f

Per the records of this test, what outcome belongs to `CNCCCNc1c2ccccc2nc2cccc([N+](=O)[O-])c12` ? t

Per the records of this test, what outcome belongs to CN(C)c1ccc(C2CC(C)(O)Oc3cc4c(cc32)OCO4)cc1 (stereo unspecified) ? f

Per the records of this test, what outcome belongs to O=C1c2cccnc2C(=O)C2C3C=CC(C3)C12 (stereo unspecified) ? f

Per the records of this test, what outcome belongs to `CCCCCCCCCCCCNC(C)=O` ? f

Per the records of this test, what outcome belongs to CCOC(=O)COc1c(OC)cc(C2C3=C(COC3=O)Oc3cc4c(cc32)OCO4)cc1OC (stereo unspecified) ? f

Per the records of this test, what outcome belongs to `COc1cc(O)c(O)c(C(C)(C)C)c1` ? f

Per the records of this test, what outcome belongs to `CC1=C(C(=O)NCc2ccccc2)C(c2ccccc2)C(C(=O)NCc2ccccc2)=C(C)N1` ? f

====

assay: NCI Yeast Anticancer Drug Screen. Data for the mlh1 strain (AID 171);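 note: 0% = growth of vehicle-treated control cultures of the same strain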; settings: S. cerevisiae mlh1 strain growth inhibition; at 33.0 µM
This is part of a sample that, as a whole, favours compounds with a hit. Of some 79,000 tested, about 15% had one in any assay. The source made the active and inactive calls. Rule as the data show it: active = growth inhibition above about 70%; inactive = the rest.
Your reply should match one of these outcome classes. active, inactive

Please review the following examples before continuing.
COMPOUND: Oc1ccc2c(c1)C(O)CCCC2 (stereo unspecified)
CLASS: inactive
//
COMPOUND: CCCCCCCCCCCCCCCCOP(=O)(O)OCC(N)C(=O)O (stereo unspecified)
CLASS: active
//
COMPOUND: Cc1cc(N(CCOS(C)(=O)=O)CCOS(C)(=O)=O)ccc1C=Nc1ccc(-c2nc(Cc3ccccc3)sc2C)cc1
CLASS: active
//
COMPOUND: CCCCCOC(=S)SC(=O)OCC
CLASS: inactive
//
COMPOUND: CN(CCN(C)Cc1ccccc1)Cc1ccccc1
CLASS: inactive

Per the records of this test, what outcome belongs to COc1nc2c(c(=O)n1C)N=C(c1ccccc1)[C@H](C(CC(=O)c1ccccc1)c1ccccc1)C(c1ccccc1)N2 (stereo partly specified) ? inactive

Per the records of this test, what outcome belongs to `CC(C)(C)N=C(NO)c1ccccc1` ? inactive

Per the records of this test, what outcome belongs to COC(=O)C1(C)CCc2c(ccc3ccccc23)C1=O (stereo unspecified) ? inactive

Per the records of this test, what outcome belongs to CCOC(=O)COc1c(OC)cc(C2C3=C(COC3=O)Oc3cc4c(cc32)OCO4)cc1OC (stereo unspecified) ? inactive

Per the records of this test, what outcome belongs to `CC1=C(SCc2ccccc2)C(=O)c2ccccc2C1=O` ? inactive

Per the records of this test, what outcome belongs to `CCC(=O)c1cc(C(=O)C(=S)SC)cc(C(=O)C(=S)SC)c1` ? active

Per the records of this test, what outcome belongs to CC[N+]1(C)CCC(O)(c2ccc(OC)cc2)C(C(=O)c2ccc(OC)cc2)C1 (stereo unspecified) ? inactive

Per the records of this test, what outcome belongs to `CCN(CC)CCNc1ccc2ncn3c4cc(OC)c(OC)c(=O)c4c(O)c1c23` ? inactive

Per the records of this test, what outcome belongs to `CCOC(=O)c1cc([N+](=O)[O-])c(Sc2ncnc3nc[nH]c23)c([N+](=O)[O-])c1` ? active

Per the records of this test, what outcome belongs to `C/C(=N\Nc1ccc([N+](=O)[O-])cc1[N+](=O)[O-])c1sc(-n2nc(-c3ccccc3)cc2-c2ccccc2)nc1C` ? inactive

Per the records of this test, what outcome belongs to `O=C(O)c1ccc(N2C(=O)C=CC2=O)cc1` ? inactive

Per the records of this test, what outcome belongs to `COC1=C(N)C(=O)c2nc(-c3nc(C(=O)O)c(C)c(-c4ccc(OC)c(OC)c4O)c3N)ccc2C1=O` ? active

Per the records of this test, what outcome belongs to CCOC(=O)C1N=[N+](c2ccccc2)C(=O)/C1=C\n1c(=S)[nH]c2ccc([N+](=O)[O-])cc21 (stereo unspecified) ? inactive

Per the records of this test, what outcome belongs to `Cc1cc(O)c(C(C)C)cc1C1(c2cc(C(C)C)c(O)cc2C)OC(=O)c2ccccc21` ? inactive

Per the records of this test, what outcome belongs to `Cc1nc(-c2cc3cc([N+](=O)[O-])ccc3oc2=O)cs1` ? inactive
